Where do the numbers come from? From paper PMC8769072.

- Tested system: USP7 53-206, Q93009
- Sequence (Q93009 53-206): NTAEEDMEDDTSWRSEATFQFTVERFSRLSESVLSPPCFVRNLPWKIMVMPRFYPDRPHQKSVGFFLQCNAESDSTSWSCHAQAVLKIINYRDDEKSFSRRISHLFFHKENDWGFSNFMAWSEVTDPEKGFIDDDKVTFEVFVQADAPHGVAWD
Measured attribute: selected by phage display

Known results for binders:
                              binder         measured_attribute               observed
0     STMPESPSSSTTATTT [SP4, Q02446]  selected by phage display  confidence 3 (active)
1   SSSSPSPPPLSAISSV [PRDM2, Q13029]  selected by phage display  confidence 2 (active)
2  SIAQPSTSSLHSHSSL [TCF7L2, Q9NQB0]  selected by phage display  confidence 3 (active)
3   TVITSVSSASSSSTVL [KLF12, Q9Y4X4]  selected by phage display  confidence 4 (active)

Q) I'd like to know its selected by phage display. The binder in question is PSVPSVSTTSVTMPNV [TSC22D2, O75157]
A) confidence 4 (active)
